assay_system: LIN54 DBD (Homo sapiens, UniProt Q6MZP7 515-646)
Sequence (Q6MZP7 515-646): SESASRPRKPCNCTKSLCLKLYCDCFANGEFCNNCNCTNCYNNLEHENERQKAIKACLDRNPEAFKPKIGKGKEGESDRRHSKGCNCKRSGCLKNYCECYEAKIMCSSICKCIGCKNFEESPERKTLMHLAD
test_description: fluorescence polarization; ITC (25 C) and FP: 20 mM Tris, 150 mM NaCl, 0.1% Tween 20, pH 8.0; NMR: 35 mM MES, 75 mM NaCl, 5% D2O, pH 6.0, 25 C
particulars: protein: recombinant; tags: N-terminal GST with TEV site, cleaved; label: 3' TAMRA on strand 1; blunt
endpoint: pKd
# pKd is unitless: minus log10 of the molar concentration; print number only

Entry CHR27 (dsDNA) DNA 1: CCTTTAGCGCGGTGAGTTTGAAACTGTAA DNA 2: TTACAGTTTCAAACTCACCGCGCTAAAGG : reported pKd = ? 6.37
